B1: HDV Ribozyme (parent)
chain: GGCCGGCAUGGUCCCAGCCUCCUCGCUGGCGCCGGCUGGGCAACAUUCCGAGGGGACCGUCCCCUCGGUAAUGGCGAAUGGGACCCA

- Variants of: B1
- protocol_description: self-cleavage, relative activity (ratio to wild type); higher = more cleavage; co-transcriptional
Listing: self-cleavage of selected variants
// return a plain number; no unit text

# example entries with known answers
A16G G74U
0.494
C30A G73A
0.237
G34C C84G
0.166
C15A G50U
0.674

So, G74C A83U ? Its self-cleavage was 0.185

variant U12G A71C , self-cleavage observed: 0.712

Input U46G G53C . Output self-cleavage: 0.465

In plain terms, A42U C57U has a documented self-cleavage of 0.428

get_value(item= C19A A70C , readout=self-cleavage) returns 0.0573

Field self-cleavage (entry C30U C32G ) reads 0.0652

// field: self-cleavage; key: C21U A56C ; value = 0.289
